The origin of these recorded values is paper PMC2360155.

Target: CRABPI (Mus musculus, UniProt P62965)
Construct: Wild-type full-length cDNAs for mouse CRABPI and CRABPII were subcloned into the prokaryotic expression vector pRSETB; pRSETB vector fusion leader (purified on Ni-NTA, so a His tag)
Sequence (P62965 whole entry, the tested form may be a part): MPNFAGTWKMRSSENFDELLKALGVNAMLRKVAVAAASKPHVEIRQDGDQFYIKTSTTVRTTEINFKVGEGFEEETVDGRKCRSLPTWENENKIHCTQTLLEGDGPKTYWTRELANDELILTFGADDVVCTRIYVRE
Test: CRABP competition binding assay, CRABPI
Conditions: competition with [3H]-all-trans-RA; read-out: CRAPBI IC50
pIC50: −log10 of the molar value.
MEASURE: pIC50

CC1=C(/C=C/C(C)=C/C=C/C(C)=C\C(=O)Nc2ccc(O)cc2)C(C)(C)CCC1n1ccnc1 (stereo not drawn) :: < 6.30

Parameter requested: pIC50. Apply to each item below.
1. CC1=C(/C=C/C(C)=C/C=C/C(C)=C/C(=O)O)C(C)(C)CCC1n1ccnc1 (stereo not drawn)
2. CC1=C(/C=C/C(C)=C/C=C/C(C)=C/C(=O)Nc2ccc(O)cc2)C(C)(C)CCC1n1ccnc1 (stereo not drawn)

Reply:
1: < 6.30; 2: < 6.30
